// provenance: ChEMBL document CHEMBL1201862

Tested on: MOLT-4
ASSAY NOTES: NCI tumour cell line growth inhibition, 48 h
Active and inactive are the calls of the source. Cut-off read from the data, not from the text of the source: active = GI50 up to about 1.1 µM and inactive = higher.
// reported GI50 for each item listed
MEASURED PROPERTY: GI50

- COMPOUND: "COc1cc2c(c(OC)c1OC)C(=O)[C@@H]1[C@H]2N1C(N)=O"
  READING: "> 100 µM (inactive)"
- COMPOUND: "COC(=O)[C@H](Cc1ccccc1)NC(=O)OCC1OC(n2cc(C)c(=O)[nH]c2=O)CC1N=[N+]=[N-] (stereo not given in full)"
  READING: "> 100 µM (inactive)"
- COMPOUND: "Cc1cc2c(c(C(N)=O)c1C)-c1cccc(F)c1C2=O"
  READING: "> 100 µM (inactive)"
- COMPOUND: "CCOc1ccccc1N1CSc2nnc(-c3ccccc3)n2C1"
  READING: "> 100 µM (inactive)"
- COMPOUND: "C=CCN1CCC(OC(=O)C(O)(/C=C\\CC)C2CCCC2)CC1 (stereo not given)"
  READING: "> 100 µM (inactive)"
- COMPOUND: "CC(C)(C)NNC(=O)/C(=C/c1ccc(Oc2ccc(Cl)c(Cl)c2)cc1)NC(=O)c1ccccc1"
  READING: "65 µM (inactive)"
- COMPOUND: "CC1C[C@@]2(c3ccccc3)C(=O)CCC[C@H]2N1 (stereo not given in full)"
  READING: "> 100 µM (inactive)"
- COMPOUND: "CC(=O)OCC1OC(n2c(-c3ccc(C)cc3)cc(-c3ccccc3)c(C#N)c2=O)C(OC(C)=O)C(OC(C)=O)C1OC(C)=O (stereo not given)"
  READING: "> 100 µM (inactive)"
- COMPOUND: "COc1cccc2c1C(=O)c1ccc3cc(CCl)cc(O)c3c1C2=O"
  READING: "0.238 µM (active)"
- COMPOUND: "C/C(=N\\NC(=O)CC(=O)Nc1ccc(C)cc1)c1cc2ccccc2oc1=O"
  READING: "> 100 µM (inactive)"

---

As shown below, each of these molecules has a reported GI50 value.
System: UACC-257
ASSAY NOTES: NCI tumour cell line growth inhibition, 48 h
Calls of active or inactive are those of the source. No stated cut-off is given here; in the data, active = GI50 up to about 1.1 µM and inactive = higher.
MEASURED PROPERTY: GI50

- MOLECULE: "CC(=O)O[C@H]1CC[C@@]2(C)C(=CC[C@H]3[C@@H]4C/C(=C\\c5ccc(N(C)C)cc5)[C@H](OC(C)=O)[C@@]4(C)CC[C@@H]32)C1"
  READING: "6.14 µM (inactive)"
- MOLECULE: "CC(=O)OCC1OC(n2cccnc2=O)C(OC(C)=O)C1OC(C)=O (centres undefined)"
  READING: "> 100 µM (inactive)"
- MOLECULE: "COc1cc(C2SCC(=O)N2c2ccc(Cl)cc2)cc(I)c1O (centres undefined)"
  READING: "11.8 µM (inactive)"
- MOLECULE: "COC(=O)C(N)CCCC(N)C(=O)NC(C)C(=O)NC(CCC(=O)NCCNCCNc1c2ccccc2nc2cccc([N+](=O)[O-])c12)C(N)=O (centres undefined)"
  READING: "19.5 µM (inactive)"
- MOLECULE: "CC(=O)OC12c3ccccc3-c3ccccc3C1C(C(=O)O)C2(Cl)C(=O)O (centres undefined)"
  READING: "> 10 µM (inactive)"
- MOLECULE: "O=C1c2cccc3cc([N+](=O)[O-])cc(c23)C(=O)N1CCCN1CCN(CCCNc2ccc3ncn4c5ccccc5c(=O)c2c34)CC1"
  READING: "< 0.005 µM (active)"
- MOLECULE: "COc1ccccc1NC(=S)N/N=C1\\C(=O)Nc2ccccc21"
  READING: "> 100 µM (inactive)"
- MOLECULE: "CSC(C1c2ccccc2N(C)C2=NC(=O)N(C)C(=O)C21Cl)S(=O)(=O)c1ccc(C)cc1 (centres undefined)"
  READING: "79.1 µM (inactive)"
- MOLECULE: "CN(C)c1ccc(/C=C2\\CCCCCC2=O)cc1"
  READING: "74.3 µM (inactive)"
